- System: DeltatarO mutant
- Assay procedure: S. aureus survival, RN4220 and DeltatarO strains – OD600, teichoic acid synthesis inhibitors, primary screen (AID 463173)
- Run parameters: S. aureus RN4220 wild type/DeltatarO growth, OD600, 18 h, screened at 18.75 µg/mL (by protocol)
The whole screen tested about 52,000 compounds, of which about 4,300 (8.3%) were called active. No stated cut-off is given here; in the data, active means survival mostly below about 52% (no sharp cut-off); inactive means mostly above about 56%. The sample holds actives, similar compounds and a random draw of the others, so the mix is not that of the screen.
The reply should name one outcome from label 1 (active), label 0 (inactive)

Example results:
> print(dat)
                                   compound  assigned.label
1  O=C(Cc1ccccc1F)N1CCC(c2nc3c(nnn3Cc3ccc(F)cc3)c(=O)[nH]2)CC1         label 0
2  Cc1ccc(S(=O)(=O)Nc2cccc(-c3ccc(N4CCCCC4)nn3)c2)s1         label 0
3  Cc1ccc(-n2ncc(C(=O)N3CCN(c4ccccn4)CC3)c2C2CCN(C(=O)OC(C)(C)C)CC2)cc1         label 0
4  O=C(Cc1ccc(F)cc1)N1CCC(c2nc3c(nnn3Cc3ccc(F)cc3)c(=O)[nH]2)CC1         label 0
5  CS(=O)(=O)N1CCC(c2nc3c(nnn3Cc3ccc(F)cc3)c(=O)[nH]2)CC1         label 0
6  CC1CCN(c2ccc(-c3cccc(NS(=O)(=O)c4ccc(Cl)s4)c3)nn2)CC1         label 0

Dear all, I need the recorded test outcome for "O=C(CSc1ccc(-c2ccccn2)nn1)Nc1ccc(F)c(F)c1" , thank you. label 1

Dear all, I need the recorded test outcome for "Cc1nc(-c2ccccc2)sc1-c1ccc(SCC(=O)NCc2ccc(Cl)cc2)nn1" , thank you. label 0

Dear all, I need the recorded test outcome for "COc1ccc(Nc2ncnc3c2cnn3C)c(OC)c1" , thank you. label 0

Dear all, I need the recorded test outcome for "Cc1ccc(NC(=O)CSc2ccc(-c3sc(-c4ccccc4)nc3C)nn2)cc1F" , thank you. label 1

Dear all, I need the recorded test outcome for CCC(C(=O)Nc1cc(F)ccc1F)n1nc(C)c2c(C)n(-c3ccc(C)cc3)nc2c1=O (stereo unspecified) , thank you. label 0

Dear all, I need the recorded test outcome for "O=S(=O)(Nc1ccc(-c2ccc(N3CCCC3)nn2)cc1)c1ccc(C(F)(F)F)cc1" , thank you. label 0

Dear all, I need the recorded test outcome for "CN(C)c1ccc(/C=N/c2nc3ccccc3o2)cc1" , thank you. label 0

Dear all, I need the recorded test outcome for "Cc1ccccc1Cn1c2ccccc2c2cnn(CC(=O)NC3CCCCCC3)c(=O)c21" , thank you. label 0

Dear all, I need the recorded test outcome for "CSc1nc(NC(N)=S)nc(NC(C)C)n1" , thank you. label 0

Dear all, I need the recorded test outcome for "O=S(=O)(Nc1cccc(-c2ccc(N3CCCCC3)nn2)c1)c1cccc(F)c1" , thank you. label 0

Dear all, I need the recorded test outcome for "COc1ccc(C)cc1S(=O)(=O)Nc1cccc(-c2ccc(N3CCC(C)CC3)nn2)c1" , thank you. label 1

Dear all, I need the recorded test outcome for "Cc1nc(C)c(-c2ccc(SCC(=O)Nc3ccc(C)c(F)c3)nn2)s1" , thank you. label 0

Dear all, I need the recorded test outcome for "O=C(Cc1ccccc1F)N1CCC(c2nc3c(nnn3Cc3cccc(Cl)c3)c(=O)[nH]2)CC1" , thank you. label 1

Dear all, I need the recorded test outcome for "Cc1ccc2onc(CNC(=O)Nc3cc(F)ccc3F)c2c1" , thank you. label 0

Dear all, I need the recorded test outcome for "COc1ccc(F)cc1S(=O)(=O)Nc1cccc(-c2ccc(N3CCC(C)CC3)nn2)c1" , thank you. label 0
